All values here come from ChEMBL document CHEMBL1201862.

Measured IC50, listed per entry.
Molecular target: Sentrin-specific protease 7 (Homo sapiens, UniProt Q9BQF6);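 further: Luminescence-based dose-response confirmation of ultra-high-throughput screening hits, measuring inhibition of SENP7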
Sequence (Q9BQF6 whole entry): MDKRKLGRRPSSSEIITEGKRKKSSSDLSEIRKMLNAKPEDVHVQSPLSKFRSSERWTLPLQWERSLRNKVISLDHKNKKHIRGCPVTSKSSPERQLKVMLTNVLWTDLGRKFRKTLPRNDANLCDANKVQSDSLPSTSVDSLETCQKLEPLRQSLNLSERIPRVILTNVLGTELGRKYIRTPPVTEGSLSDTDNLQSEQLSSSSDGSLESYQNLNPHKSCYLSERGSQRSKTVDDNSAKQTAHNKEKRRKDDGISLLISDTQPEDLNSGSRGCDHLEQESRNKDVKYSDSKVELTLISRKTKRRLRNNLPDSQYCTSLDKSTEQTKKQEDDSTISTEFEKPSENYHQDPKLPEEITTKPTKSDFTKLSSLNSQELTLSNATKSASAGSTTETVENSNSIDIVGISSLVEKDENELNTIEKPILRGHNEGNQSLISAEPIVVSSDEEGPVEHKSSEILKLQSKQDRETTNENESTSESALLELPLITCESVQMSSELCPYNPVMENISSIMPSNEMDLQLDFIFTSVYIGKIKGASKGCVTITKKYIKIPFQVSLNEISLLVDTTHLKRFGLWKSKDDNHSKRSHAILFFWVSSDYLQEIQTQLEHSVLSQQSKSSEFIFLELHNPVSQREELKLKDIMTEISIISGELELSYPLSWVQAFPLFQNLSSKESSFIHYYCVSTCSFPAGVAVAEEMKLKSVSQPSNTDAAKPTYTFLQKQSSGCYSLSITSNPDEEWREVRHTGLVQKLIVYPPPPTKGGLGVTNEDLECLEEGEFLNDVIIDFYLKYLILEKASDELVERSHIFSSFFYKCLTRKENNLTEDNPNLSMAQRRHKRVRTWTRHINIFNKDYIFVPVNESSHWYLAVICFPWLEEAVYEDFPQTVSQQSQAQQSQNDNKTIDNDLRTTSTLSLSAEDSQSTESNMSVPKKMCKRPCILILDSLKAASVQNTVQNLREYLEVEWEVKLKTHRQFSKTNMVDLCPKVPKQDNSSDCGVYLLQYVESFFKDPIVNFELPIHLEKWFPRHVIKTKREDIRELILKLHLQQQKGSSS
Format: functional
The source made the active and inactive calls.
OBSERVATION TYPE: IC50

>>> result("CC(/C=C1\\SC(=S)N(NS(=O)(=O)c2ccccc2)C1=O)=C\\c1ccccc1")
"30.7 µM (active)"
>>> result("COc1ccc(C(=O)O/N=C(\\N)c2ccc(OC)c(OC)c2)cc1")
"8.96 µM (active)"
>>> result("O=C(Nc1ccc(Cl)cn1)c1ccc(Oc2ccccc2)cc1")
"2.3 µM (active)"
>>> result("COCCn1c(C)cc(C(=O)CSc2nc3ccccc3s2)c1C")
"8.92 µM (active)"
>>> result("O=C(Nc1cccs1)Nc1ccc(Br)cc1F")
"11.4 µM (active)"
>>> result("COC(=O)c1sccc1NC(=O)Cc1ccc(Br)cc1")
"7.65 µM (active)"

----------
Each record here notes measured EC50.
Test: inhibitors of SNCA 5'UTR-driven reporter translation, confirmation, H4 neuroglioma cells, luminescence (AID 1988)
Type: functional, cell-based
Calls of active or inactive are those of the source.
OBSERVATION TYPE: EC50

>>> result("Nc1ccc(-c2ncc(-c3ccccc3)o2)cc1")
"< 0.1 µM (active)"
>>> result("Cc1cc(C)c2c(N)c(C(=O)c3ccc(Cl)cc3Cl)sc2n1")
"13.8 µM (active)"
>>> result("COc1ccc(C2=Nn3c(nnc3-c3ccccc3OC)SC2)cc1OC")
"< 0.1 µM (active)"
>>> result("O=[N+]([O-])c1ccc(O)c(/C=N/Nc2ccc(Cl)nn2)c1")
"< 0.1 µM (active)"
>>> result("Cc1ccccc1-c1nnc(S)n1/N=C/c1ccc(-c2ccccc2Br)o1")
"11.7 µM (active)"
>>> result("Cc1ccc(S(=O)(=O)N(C)CC(=O)N/N=C/c2ccc(C)o2)cc1")
"> 120 µM (not active)"

----------
Recorded EC50 by entry
Target: Luciferin 4-monooxygenase (Photinus pyralis, UniProt P08659)
Sequence (P08659 whole entry): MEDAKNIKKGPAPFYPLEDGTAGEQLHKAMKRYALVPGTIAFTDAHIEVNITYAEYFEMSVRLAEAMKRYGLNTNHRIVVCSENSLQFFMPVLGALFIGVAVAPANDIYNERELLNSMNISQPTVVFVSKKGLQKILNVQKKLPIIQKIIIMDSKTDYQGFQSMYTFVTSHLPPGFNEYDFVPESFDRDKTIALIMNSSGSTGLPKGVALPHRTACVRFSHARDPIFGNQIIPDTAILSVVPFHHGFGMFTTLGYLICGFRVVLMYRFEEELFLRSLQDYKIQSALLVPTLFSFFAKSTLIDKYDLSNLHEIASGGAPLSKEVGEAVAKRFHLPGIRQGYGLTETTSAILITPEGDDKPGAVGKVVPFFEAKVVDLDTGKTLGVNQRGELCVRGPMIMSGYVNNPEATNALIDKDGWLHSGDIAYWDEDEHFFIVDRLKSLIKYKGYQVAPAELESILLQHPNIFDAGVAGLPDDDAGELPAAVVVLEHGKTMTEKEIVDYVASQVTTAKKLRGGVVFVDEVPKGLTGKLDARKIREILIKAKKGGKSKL
Experiment: firefly luciferase enzyme inhibitors, dose response, biochemical, luminescence (AID 1891)
Calls of active or inactive are those of the source.
OBSERVATION TYPE: EC50

>>> result("O=C(Nc1cnn(Cc2c(Cl)cccc2Cl)c1)C(c1ccccc1)c1ccccc1")
"> 112 µM (not active)"
>>> result("COC(=O)c1sc(NC(=O)c2ccc(OC)cc2OC)nc1C")
"0.251 µM (active)"
>>> result("COc1cccc(N2CCN(Cc3cccc(Cl)c3)CC2)c1")
"> 112 µM (not active)"
>>> result("Cc1cc(F)ccc1NC(=O)c1cc(S(=O)(=O)N2CCCC2)cn1C")
"> 112 µM (not active)"
>>> result("CN(Cc1cnccn1)C(=O)CC1C(=O)NCCN1Cc1cccc(Oc2ccccc2)c1 (centres undefined)")
"> 112 µM (not active)"
>>> result("Cn1c(=O)oc2cc(S(=O)(=O)N3CCN(c4cccc(Cl)c4)CC3)ccc21")
"> 112 µM (not active)"
>>> result("Cc1ccc(C(=O)N2CCN(c3ccc([N+](=O)[O-])c(NCc4ccco4)c3)CC2)cc1")
"41.3 µM (active)"
>>> result("Cc1ccc(-c2nc(N/N=C/c3ccncc3)c3ccccc3n2)cc1")
"0.158 µM (active)"
>>> result("CCOC(=O)C(C)Oc1cccc2c(=O)n(CC(=O)NCCc3ccc(OC)c(OC)c3)ccc12 (centres undefined)")
"> 112 µM (not active)"
>>> result("CCCCn1c(SCN2C(=O)c3ccccc3C2=O)nc2cc(S(N)(=O)=O)ccc21")
"> 112 µM (not active)"
>>> result("CCOc1ccc2nc(NC(=O)c3ccco3)sc2c1")
"0.383 µM (active)"
>>> result("COc1cc2c(cc1OC)-c1cc(NC3CC3)nc(=O)n1CC2")
"> 112 µM (not active)"
>>> result("O=C(Nc1ccc(-c2nc3ccccc3[nH]2)cc1)C1CCCO1 (centres undefined)")
"1.02 µM (active)"
>>> result("COc1ccccc1CNC(=O)c1cccc(N(C)C)c1")
"> 112 µM (not active)"

----------
Molecular target: Zinc finger protein mex-5 (Caenorhabditis elegans, UniProt Q9XUB2)
Sequence (Q9XUB2 whole entry): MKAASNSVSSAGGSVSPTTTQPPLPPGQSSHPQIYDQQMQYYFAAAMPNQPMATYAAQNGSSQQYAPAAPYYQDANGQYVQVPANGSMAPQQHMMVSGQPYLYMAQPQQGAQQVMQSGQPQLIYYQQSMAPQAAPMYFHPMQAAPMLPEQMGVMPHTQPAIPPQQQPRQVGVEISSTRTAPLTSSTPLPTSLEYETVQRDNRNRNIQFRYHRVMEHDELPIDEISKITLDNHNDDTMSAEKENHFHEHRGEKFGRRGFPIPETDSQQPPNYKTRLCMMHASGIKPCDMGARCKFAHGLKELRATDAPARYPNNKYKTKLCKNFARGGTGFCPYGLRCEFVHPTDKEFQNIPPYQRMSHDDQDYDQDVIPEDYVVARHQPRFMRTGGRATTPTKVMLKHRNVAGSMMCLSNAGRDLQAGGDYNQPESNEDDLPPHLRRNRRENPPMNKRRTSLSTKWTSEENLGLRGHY
Assay: MEX-5/TCR-2 RNA interaction inhibitors, dose response, biochemical, C. elegans, fluorescence polarization (AID 1960)
The source made the active and inactive calls.
OBSERVATION TYPE: EC50

>>> result("Cc1ccc(NC(=O)CN2C(=O)S/C(=C\\c3cccn3-c3cccc(C(=O)O)c3)C2=O)c(C)c1")
"> 300 µM (not active)"
>>> result("CC(C)(C)c1ccc(C(=O)Nc2cccc3ncccc23)cc1")
"5.39 µM (active)"
>>> result("Cc1cc(=O)oc2c(CN3CCC(C)CC3)c(O)c(Cl)cc12")
"> 300 µM (not active)"
>>> result("CC(C)CNC(=O)C1Nc2ccc(C(F)(F)F)cc2C2C=CCC12 (stereo unspecified)")
"> 300 µM (not active)"
>>> result("COc1cccc(N/N=C2/C(=O)Nn3c2nc(C)cc3=O)c1")
"< 0.06 µM (inconclusive)"
>>> result("COc1ccc2nc3ccccc3nc2c1NC(=O)c1ccccc1Cl")
"> 300 µM (not active)"
>>> result("Oc1nc2ccccc2nc1/C=C/c1ccc(F)cc1")
"> 300 µM (not active)"
>>> result("COc1ccc(C2C(C(=O)c3cccs3)=C(O)C(=O)N2c2nnc(C)s2)cc1OC (stereo unspecified)")
"5.19 µM (active)"
>>> result("N#Cc1c(NC(=O)/C=C/C(=O)O)sc2c1CCN(Cc1ccccc1)C2")
"25.5 µM (active)"
>>> result("COc1cccc(C2c3c(oc4ccccc4c3=O)C(=O)N2Cc2ccco2)c1 (stereo unspecified)")
"150 µM (active)"
>>> result("C=CCn1c(Cc2nc3ccccc3[nH]2)n[nH]c1=S")
"1.1 µM (active)"

----------
Molecular target: Replicative DNA helicase DnaB (Mycobacterium tuberculosis)
Assay: DnaB intein splicing inhibitors, dose response, biochemical, cell-free fluorescence (AID 449749)
Type: functional
Active and inactive are the calls of the source.
Outcome codes: active, inactive

>>> category_label("COc1ccc(CN(C(=O)CSc2nnc(-c3ccccc3C)o2)c2ccc(F)cc2)cc1")
"active"
>>> category_label("O=C(O)CC1OCC=C2CN3CCC45C6=CC(=O)C(O)=C([N+](=O)[O-])C6=NC4C1C2CC35 (stereo unspecified)")
"active"
>>> category_label("CC/C(=C/c1sc2ccc(C)cc2[n+]1CCO)SC")
"inactive"
>>> category_label("CCCc1n[nH]c2c1C(CCc1ccccc1)C(C#N)=C(N)O2 (stereo unspecified)")
"active"
>>> category_label("CC(=O)Oc1c(Br)cc(N(C(C)=O)S(=O)(=O)c2ccccc2)c2ccccc12")
"active"
>>> category_label("CCC(C)[C@H](NC(=O)NC1CCN(Cc2ccccc2)CC1)C(=O)OC (stereo partly specified)")
"active"

----------
// endpoint AC50 / system Cytochrome P450 2D6 (Homo sapiens);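 further: CYP2D6 member of a cytochrome P450 panel assay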
OBSERVATION TYPE: AC50

>>> result("COc1ccc(-n2c(=O)c(-c3ccc(Cl)cc3)nc3cnc(N(C)C)nc32)cc1")
"2.51 µM (inconclusive)"
>>> result("CCOc1nnc(C)c2c(C)n(-c3ccc(Cl)cc3)nc12")
"25.1 µM (inconclusive)"
>>> result("C/N=C1\\N[C@H](c2ccccc2)N(c2ccccc2)S1")
"25.1 µM (inconclusive)"

----------
# collection of AC50 values tested on Cytochrome P450 2C9 (Homo sapiens, UniProt P11712)
# Sequence (P11712 whole entry): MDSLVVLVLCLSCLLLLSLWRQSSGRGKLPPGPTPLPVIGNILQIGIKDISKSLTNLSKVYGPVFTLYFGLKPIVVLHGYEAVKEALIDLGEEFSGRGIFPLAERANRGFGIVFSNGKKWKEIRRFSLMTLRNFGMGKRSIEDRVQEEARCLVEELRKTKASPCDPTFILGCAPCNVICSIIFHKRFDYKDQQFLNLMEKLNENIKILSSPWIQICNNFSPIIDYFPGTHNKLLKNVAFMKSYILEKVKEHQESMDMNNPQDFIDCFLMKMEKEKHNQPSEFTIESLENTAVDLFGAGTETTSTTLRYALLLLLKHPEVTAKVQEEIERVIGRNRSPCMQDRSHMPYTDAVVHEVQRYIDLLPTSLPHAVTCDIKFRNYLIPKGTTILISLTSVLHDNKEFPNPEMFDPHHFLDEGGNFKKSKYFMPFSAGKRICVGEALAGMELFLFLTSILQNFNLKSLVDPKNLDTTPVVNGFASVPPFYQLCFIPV
OBSERVATION TYPE: AC50

>>> result("CCC(C)[C@H](NC(=O)NC1CCN(Cc2ccccc2)CC1)C(=O)OC (stereo not given in full)")
"2.24 µM (inconclusive)"
>>> result("CC(C)=C1C(=O)NN(c2ccc(F)c(Cl)c2)C1=O")
"20 µM (inconclusive)"
>>> result("COc1ccc(Nc2cc(=O)n(C3CCCCC3)c(=O)[nH]2)c(OC)c1")
"25.1 µM (inconclusive)"
>>> result("O=C(NC1CCCC1)c1cnn2c(C(F)(F)F)cc(-c3ccco3)nc12")
"22.4 µM (inconclusive)"
>>> result("C/C(=N\\OC(=O)NC(C)C)c1sc(-c2ccccc2)nc1C")
"11.2 µM (inconclusive)"
>>> result("O=C(NCCO)c1cc2c(s1)CCC2")
"12.6 µM (inconclusive)"
>>> result("O=c1[nH]c2ccccc2n1CCCN1CCN(C(c2ccccc2)c2ccccc2)CC1 [OXATOMIDE]")
"7.94 µM (inconclusive)"
>>> result("COc1cnc(-c2ccccn2)nc1Sc1c(Cl)cccc1Cl")
"15.8 µM (inconclusive)"
>>> result("O=C(CCC(=O)c1cccs1)OCC(=O)N1CCN(C(=O)c2ccco2)CC1")
"11.2 µM (inconclusive)"
>>> result("O=C(CC1C(=O)NCCN1C(=S)Nc1ccccc1)Nc1ccc2c(c1)OCCO2 (stereo not given)")
"35.5 µM (inconclusive)"
>>> result("Clc1ccc(-c2nnc(-c3ccc(Br)cc3)c(N3CCSCC3)n2)cc1")
"10 µM (inconclusive)"
>>> result("CC(C)Cn1cnc2c(SCc3ccc(Cl)cc3Cl)nc(N)nc21")
"7.94 µM (inconclusive)"
>>> result("CC1(C)[C@@H]2CC[C@@](C)(C2)[C@H]1OC(=O)c1ccccc1C(=O)O")
"3.16 µM (inconclusive)"
>>> result("CC[C@H](Cc1c(I)cc(I)c(N)c1I)C(=O)O")
"6.31 µM (inconclusive)"
>>> result("COCCNC(=O)[C@H](C)[C@H]1C[C@]1(C)[C@H](NC(=O)OCc1ccccc1)c1ccccc1")
"20 µM (inconclusive)"
